Value source: PubChem BioAssay (NCI)

# experiment-notes: NCI Yeast Anticancer Drug Screen. Data for the cln2 rad14 strain (AID 165);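 also: 0% = growth equal to vehicle treated cultures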
# assay-setup: S. cerevisiae cln2 rad14 strain, at 50.0 µM, hits give high values
Compounds without any hit were thinned out: in the full panel of roughly 79,000, 15% have a hit.
Measured growth inhibition, listed per entry.
value-type: growth inhibition (%)

[[record]]
compound = "O=C(O)c1ccc(C2CCCCC2O)cc1 (stereo unspecified)"
display_unit = "%"
result = -14.6

[[record]]
compound = "COc1ccc(C(CC(=O)O)c2cc3c(cc2OC)OCO3)cc1 (stereo unspecified)"
display_unit = "%"
result = 0.25

[[record]]
compound = "COc1ccc(Cc2ccc(Cl)cc2)c(OC)c1"
display_unit = "%"
result = 15.2

[[record]]
compound = "C[N+](C)(Cc1ccccc1)c1ccccc1"
display_unit = "%"
result = -34.9

[[record]]
compound = "Cc1ccc(S(=O)(=O)n2nc(C3OC(CO)C(O)C3O)c(O)c2C(N)=O)cc1 (stereo unspecified)"
display_unit = "%"
result = 38.1

[[record]]
compound = "C[N+](C)(C)C1CC([N+](C)(C)C)C2c3ccccc3C21 (stereo unspecified)"
display_unit = "%"
result = -9.05

[[record]]
compound = "O=S(=O)(O)c1cccc2cccc(Nc3ccccc3)c12"
display_unit = "%"
result = -33.1

[[record]]
compound = "CCOC(=O)C1CC=CCC1C(=O)OCC (stereo unspecified)"
display_unit = "%"
result = 2.55

[[record]]
compound = "O=C1OCC/C1=C\\c1ccsc1"
display_unit = "%"
result = -6

[[record]]
compound = "Cc1ccc(N=Nc2ccc([N+](=O)[O-])cc2)c([N+](=O)[O-])c1"
display_unit = "%"
result = 17.4

[[record]]
compound = "O=C(ON=C1c2ccccc2C(Br)C(Br)c2ccccc21)c1ccccc1 (stereo unspecified)"
display_unit = "%"
result = 17.6

[[record]]
compound = "CC(C)(C)OC[C@H](O)CC#N"
display_unit = "%"
result = -20.4

[[record]]
compound = "COC(=O)CC#N"
display_unit = "%"
result = -2.75

[[record]]
compound = "COc1cc(OC)c(OC)cc1/C=N/N=C(\\N)NO"
display_unit = "%"
result = 3.05

[[record]]
compound = "CCCCCN(C=O)c1ccccc1"
display_unit = "%"
result = -13.6

[[record]]
compound = "O=[N+]([O-])c1cc2no[n+]([O-])c2cc1N1CCOCC1"
display_unit = "%"
result = 98.4

[[record]]
compound = "O=C(OC1CCC(c2ccccc2)C1)c1cc([N+](=O)[O-])cc([N+](=O)[O-])c1 (stereo unspecified)"
display_unit = "%"
result = -4.3

[[record]]
compound = "COC(=O)C12CCC(C(=O)OC)(CC1)n1c(=O)n(-c3ccccc3)c(=O)n12"
display_unit = "%"
result = -16.8

[[record]]
compound = "C[N+](C)(CCS(=O)(=O)[O-])C1CCCCC1"
display_unit = "%"
result = -23.1

[[record]]
compound = "COC1OC2COC(c3ccccc3)OC2C(NC(C)=O)C1OC(C)=O (stereo unspecified)"
display_unit = "%"
result = 9.9

[[record]]
compound = "Nc1ncncc1Oc1ccccc1"
display_unit = "%"
result = -33.6

[[record]]
compound = "O=c1[nH]nc(S(=O)(=O)c2ccccc2)c(=O)[nH]1"
display_unit = "%"
result = -10.6

[[record]]
compound = "COc1cc(-c2ccc(N=C=O)c(OC)c2)ccc1N=C=O"
display_unit = "%"
result = -5.7

[[record]]
compound = "N#CN1CC[C@@H]2CC3(CCC2C1)OCCO3 (stereo partly specified)"
display_unit = "%"
result = -4.45

[[record]]
compound = "Cn1c(Cc2ccccc2)c([N+](=O)[O-])c(=O)n(C)c1=O"
display_unit = "%"
result = -8.2

[[record]]
compound = "O=C(Nc1ccccc1)c1cccnc1"
display_unit = "%"
result = -13.9

